Target: ncNOS (Homo sapiens, UniProt P29475)
Sequence (P29475 whole entry): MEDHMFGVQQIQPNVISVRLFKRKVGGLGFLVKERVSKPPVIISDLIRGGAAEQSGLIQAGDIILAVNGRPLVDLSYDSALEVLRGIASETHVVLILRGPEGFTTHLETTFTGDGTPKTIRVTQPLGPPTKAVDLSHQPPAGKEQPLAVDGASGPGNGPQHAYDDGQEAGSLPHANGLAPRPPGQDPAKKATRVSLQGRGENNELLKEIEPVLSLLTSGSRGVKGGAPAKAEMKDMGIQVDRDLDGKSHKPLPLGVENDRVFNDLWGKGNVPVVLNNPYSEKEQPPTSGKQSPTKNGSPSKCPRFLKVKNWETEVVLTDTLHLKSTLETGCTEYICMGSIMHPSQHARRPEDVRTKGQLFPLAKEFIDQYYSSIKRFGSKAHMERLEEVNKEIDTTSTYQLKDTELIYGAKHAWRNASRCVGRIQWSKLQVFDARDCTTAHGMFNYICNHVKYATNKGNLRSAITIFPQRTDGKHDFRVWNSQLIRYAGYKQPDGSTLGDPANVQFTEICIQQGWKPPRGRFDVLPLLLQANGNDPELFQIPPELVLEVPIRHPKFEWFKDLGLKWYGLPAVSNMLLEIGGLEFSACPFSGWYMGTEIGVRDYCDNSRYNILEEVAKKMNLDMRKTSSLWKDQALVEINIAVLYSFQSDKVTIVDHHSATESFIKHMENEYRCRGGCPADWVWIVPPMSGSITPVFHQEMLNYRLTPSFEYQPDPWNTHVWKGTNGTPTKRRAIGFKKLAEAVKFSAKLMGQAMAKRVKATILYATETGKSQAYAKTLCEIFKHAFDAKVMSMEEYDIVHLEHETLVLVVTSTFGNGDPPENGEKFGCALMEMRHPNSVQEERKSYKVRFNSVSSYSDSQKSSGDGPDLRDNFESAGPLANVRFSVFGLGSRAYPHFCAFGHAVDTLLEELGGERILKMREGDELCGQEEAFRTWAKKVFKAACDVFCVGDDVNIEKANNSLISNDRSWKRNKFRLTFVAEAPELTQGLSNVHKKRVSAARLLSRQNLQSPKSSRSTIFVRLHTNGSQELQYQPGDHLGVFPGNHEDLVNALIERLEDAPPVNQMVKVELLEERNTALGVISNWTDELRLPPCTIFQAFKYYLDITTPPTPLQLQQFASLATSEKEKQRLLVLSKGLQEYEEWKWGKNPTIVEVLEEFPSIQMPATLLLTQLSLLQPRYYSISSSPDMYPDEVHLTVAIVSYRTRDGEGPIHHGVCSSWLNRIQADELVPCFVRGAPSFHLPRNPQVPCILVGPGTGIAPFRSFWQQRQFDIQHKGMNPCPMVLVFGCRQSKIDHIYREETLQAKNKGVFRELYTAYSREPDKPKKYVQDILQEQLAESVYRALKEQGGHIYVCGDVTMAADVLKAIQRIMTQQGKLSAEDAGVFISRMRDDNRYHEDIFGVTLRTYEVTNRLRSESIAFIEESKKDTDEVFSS
Assay: biochemical
Details: Table 4; read-out: IC50 ncNOS
Where a name gives a salt, the structure may show the parent alone.
readout: IC50

IC50 reported for this molecule CCC1CN=C(N)C1 (centres unmarked) [Table 4: H, C2H5, H, H, H, 2-Imino-4-ethylpyrrolidine hydrochloride] : ≤ 10 µM

IC50 reported for this molecule Oc1ccc(CCNC2=NCCC2)cc1O [Table 4: H, H, H, H, C2 H4 Ph-3,4-(OH)2, hydrochloride] : > 50 µM

IC50 reported for this molecule CCCC1CC(N)=NC1C (centres unmarked) [Table 4: H, n-C3H7, CH3, H, H, hydrochloride] : ≤ 50 µM

IC50 reported for this molecule N=C1NCCC1S (centres unmarked) : ≤ 1 µM

IC50 reported for this molecule CC1CC(N)=NC1C (centres unmarked) [Table 4: H, CH3, CH3, H, H, hydrochloride] : < 1 µM

====

Let's look at some molecules and their measured pIC50.
Target: ecNOS (Homo sapiens, UniProt P29474)
Assay: NOS activity assay, ecNOS (L-[3H]citrulline formation)
Assay type: biochemical
Details: Table 5; read-out: IC50 ecNOS
pIC50: −log10 of the molar value. Counter-ions that a name gives are not always drawn.

CC1C(=N)NCC2CCCC21 (centres unmarked) [Table 5: CH, CH3, (CH2)3, H, H, H, hydrochloride] | < 4.30
N=C1CCC(C(F)(F)F)CN1 (centres unmarked) [Table 5: CH2, H, H, CF3, H, H, H, 2-Imino-5-trifluoro-piperidine] | < 4.30
CCCOC1CCC(=N)NC1 (centres unmarked) [Table 5: CH2, H, H, O-n-C3H7, H, H, H, acetic acid salt] | ≥ 5.00
CC1CC(=N)NCC1C1CCCCC1 (mixture of isomers) [acetic acid salt] | < 4.30

# input for lookup
pIC50 reported for this molecule N=C1CC[C@@H]2CCCC[C@H]2N1 (relative stereo) [Table 5: CH2, H, H, trans-(CH2)4, H, H, hydrochloride] : ≥ 5.00

====

Let's look at some compounds and their measured IC50.
Biological target: iNOS (Homo sapiens, UniProt P35228)
Assay: NOS activity assay, iNOS (L-[3H]citrulline formation)
Type: biochemical
Conditions: Table 5; read-out: IC50 iNOS
Procedure: Assay Protocol for NOS activity NOS activity is measured as the formation of L-[2,3,4,5-^3 H]Citrullinefrom L-[2,3,4,5-^3 H]Arginine. […] Reaction products are separated by passing through a cation exchange resin and quantitated as cpm by scintillation counting.
Structures can show the parent of a compound that is named as a salt.

Guide cases for IC50, answers given:
CC1CNC(=N)CC1C (stereo not shown) | ≤ 1 µM
CC1C(=N)NCC2CCCC21 (stereo not shown) [Table 5: CH, CH3, (CH2)3, H, H, H, hydrochloride] | ≤ 10 µM
CC(=O)NC1CNC(=N)CC1C (mixture of isomers) [Table 5: CH, H, CH3, NHAc, H, H, H, acetic acid salt] | ≤ 50 µM
CCC[C@@H]1C(=N)NCC[C@@H]1C (relative stereo) [Table 5: CH, n-C3H7, CH3, H, H, H, H, hydrochloride] | ≤ 50 µM
NC1=N[C@H]2CCCC[C@H]2CC1 (relative stereo) [Table 5: CH2, H, H, cis-(CH2)4, H, H, hydrochloride] | ≤ 1 µM

IC50 reported for this compound CC1CC(=N)NCC1C(=O)O (mixture of isomers) [Table 5: CH, H, CH3, CO2H, H, H, H, acetic acid salt] : ≤ 10 µM

IC50 reported for this compound CC[C@@H]1C(=N)NCC[C@@H]1C (relative stereo) [Table 5: CH, C2H5, CH3, H, H, H, H, hydrochloride] : ≤ 50 µM
